- Test system: Stenotrophomonas maltophilia (CAN-ICU 62585)
- assay remarks: MIC, broth macrodilution (CLSI), S. maltophilia
- Format: cell-based
- assay setup: S. maltophilia, footnote CAN-ICU 62584
property: Minimal Inhibitory Concentration (MIC) (µg/mL)
Answers are plain numbers, in µg/mL.

In the examples that follow, each entry is paired with its recorded Minimal Inhibitory Concentration (MIC).
{"compound": "NCCC(OCc1ccccc1)C(=O)NC1CC(N)C(OC2OC(CN)C(OCc3ccccc3)C(OCc3ccccc3)C2OCc2ccccc2)C(OCc2ccccc2)C1OC1OC(COCc2ccccc2)C(OCc2ccccc2)C(N)C1OCc1ccccc1.O=C(O)C(F)(F)F.O=C(O)C(F)(F)F.O=C(O)C(F)(F)F.O=C(O)C(F)(F)F (centres unmarked) [Compound 18]", "tested target": "Stenotrophomonas maltophilia (CAN-ICU 62585)", "property": "Minimal Inhibitory Concentration (MIC)", "readout units": "µg/mL", "observed value": 32}
{"compound": "NCC1OC(OC2C(N)CC(N)C(OC(=O)Nc3ccccc3)C2OC2OC(COC(=O)Nc3ccccc3)C(OC3OC(CN)C(OC(=O)Nc4ccccc4)C(OC(=O)Nc4ccccc4)C3N)C2OC(=O)Nc2ccccc2)C(N)C(OC(=O)Nc2ccccc2)C1OC(=O)Nc1ccccc1.O=C(O)C(F)(F)F.O=C(O)C(F)(F)F.O=C(O)C(F)(F)F.O=C(O)C(F)(F)F.O=C(O)C(F)(F)F.O=C(O)C(F)(F)F (centres unmarked) [Compound 1]", "tested target": "Stenotrophomonas maltophilia (CAN-ICU 62585)", "property": "Minimal Inhibitory Concentration (MIC)", "readout units": "µg/mL", "observed value": 4}
{"compound": "NCCC(OC(=O)Nc1ccccc1)C(=O)NC1CC(N)C(OC2OC(CN)C(OC(=O)Nc3ccccc3)C(OC(=O)Nc3ccccc3)C2OC(=O)Nc2ccccc2)C(OC(=O)Nc2ccccc2)C1OC1OC(COC(=O)Nc2ccccc2)C(OC(=O)Nc2ccccc2)C(N)C1OC(=O)Nc1ccccc1.O=C(O)C(F)(F)F.O=C(O)C(F)(F)F.O=C(O)C(F)(F)F.O=C(O)C(F)(F)F (centres unmarked) [Compound 8]", "tested target": "Stenotrophomonas maltophilia (CAN-ICU 62585)", "property": "Minimal Inhibitory Concentration (MIC)", "readout units": "µg/mL", "observed value": 128}
{"compound": "NCC1OC(OC2C(N)CC(N)C(OCc3ccccc3)C2OC2OC(COCc3ccccc3)C(OC3OC(CN)C(OCc4ccccc4)C(OCc4ccccc4)C3N)C2OCc2ccccc2)C(N)C(OCc2ccccc2)C1OCc1ccccc1.O=C(O)C(F)(F)F.O=C(O)C(F)(F)F.O=C(O)C(F)(F)F.O=C(O)C(F)(F)F.O=C(O)C(F)(F)F.O=C(O)C(F)(F)F (centres unmarked) [Compound 11]", "tested target": "Stenotrophomonas maltophilia (CAN-ICU 62585)", "property": "Minimal Inhibitory Concentration (MIC)", "readout units": "µg/mL", "observed value": 8}
{"compound": "NCC1OC(OC2C(N)CC(N)C(OC(=O)Nc3ccc(Cl)cc3)C2OC2OC(COC(=O)Nc3ccc(Cl)cc3)C(OC3OC(CN)C(OC(=O)Nc4ccc(Cl)cc4)C(OC(=O)Nc4ccc(Cl)cc4)C3N)C2OC(=O)Nc2ccc(Cl)cc2)C(N)C(OC(=O)Nc2ccc(Cl)cc2)C1OC(=O)Nc1ccc(Cl)cc1.O=C(O)C(F)(F)F.O=C(O)C(F)(F)F.O=C(O)C(F)(F)F.O=C(O)C(F)(F)F.O=C(O)C(F)(F)F.O=C(O)C(F)(F)F (centres unmarked) [Compound 2]", "tested target": "Stenotrophomonas maltophilia (CAN-ICU 62585)", "property": "Minimal Inhibitory Concentration (MIC)", "readout units": "µg/mL", "observed value": 128}

// below: Minimal Inhibitory Concentration (MIC) requested for another compound
Q: Record request: Minimal Inhibitory Concentration (MIC) value, item CCCCCCNC(=O)OCC1OC(OC2C(NC(=O)C(CCN)OC(=O)NCCCCCC)CC(N)C(OC3OC(CN)C(OC(=O)NCCCCCC)C(OC(=O)NCCCCCC)C3OC(=O)NCCCCCC)C2OC(=O)NCCCCCC)C(OC(=O)NCCCCCC)C(N)C1OC(=O)NCCCCCC.O=C(O)C(F)(F)F.O=C(O)C(F)(F)F.O=C(O)C(F)(F)F.O=C(O)C(F)(F)F (centres unmarked) [Compound 9]
Result: 16
